molecular target: hTLR7 (Homo sapiens, UniProt Q9NYK1); test: HEK Blue hTLR7 cell assay of free TLR7/8 agonists; conditions: HEK Blue hTLR7 cells, free agonist
Sequence (Q9NYK1 27-1049): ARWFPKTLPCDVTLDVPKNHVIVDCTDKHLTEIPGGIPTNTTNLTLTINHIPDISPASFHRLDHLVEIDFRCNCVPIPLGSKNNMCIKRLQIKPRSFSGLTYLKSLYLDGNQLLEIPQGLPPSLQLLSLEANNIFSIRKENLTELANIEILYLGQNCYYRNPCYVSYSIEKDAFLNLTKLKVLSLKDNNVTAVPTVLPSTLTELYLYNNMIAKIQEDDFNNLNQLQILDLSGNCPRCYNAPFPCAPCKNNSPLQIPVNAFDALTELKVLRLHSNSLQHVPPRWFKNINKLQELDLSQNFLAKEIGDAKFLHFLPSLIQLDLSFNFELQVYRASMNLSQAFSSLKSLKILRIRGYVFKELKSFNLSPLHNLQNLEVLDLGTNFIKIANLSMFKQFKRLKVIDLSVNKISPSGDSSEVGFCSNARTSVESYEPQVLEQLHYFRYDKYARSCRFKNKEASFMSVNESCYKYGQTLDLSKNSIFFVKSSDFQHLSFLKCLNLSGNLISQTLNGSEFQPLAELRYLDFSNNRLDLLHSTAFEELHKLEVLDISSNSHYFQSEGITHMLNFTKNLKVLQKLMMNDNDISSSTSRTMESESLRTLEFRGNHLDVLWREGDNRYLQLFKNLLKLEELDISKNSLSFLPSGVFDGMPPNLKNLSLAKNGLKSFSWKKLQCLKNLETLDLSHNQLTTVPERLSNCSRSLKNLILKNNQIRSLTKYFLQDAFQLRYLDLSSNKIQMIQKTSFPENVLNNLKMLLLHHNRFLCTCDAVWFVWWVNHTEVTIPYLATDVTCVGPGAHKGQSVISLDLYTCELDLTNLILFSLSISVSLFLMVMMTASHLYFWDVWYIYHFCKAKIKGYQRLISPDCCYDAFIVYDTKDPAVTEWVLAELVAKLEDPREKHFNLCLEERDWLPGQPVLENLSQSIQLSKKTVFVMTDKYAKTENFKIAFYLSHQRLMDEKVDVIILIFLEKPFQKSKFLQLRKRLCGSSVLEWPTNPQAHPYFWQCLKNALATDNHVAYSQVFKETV
Quick reference for pEC50 among some molecules
Note on pEC50: it is the negative log10 of concentration, concentration in mol/L.

Worked set:
CCCCc1nc2c(N)nc3cc(C(=O)OC)ccc3c2n1Cc1ccc(CN(C)C)cc1 [S18a] ... 6.36
CCCCc1nc2c(N)nc3cc(C(=O)OC)ccc3c2n1CCc1ccc(CN)cc1 [S76a] ... 5.46
COCCc1nc2c(N)nc3cc(C(=O)OC)ccc3c2n1Cc1ccc(CN)cc1 [S78a] ... 5.42

Input CCCCc1nc2c(N)nc3cc(C(=O)OC)ccc3c2n1CCCCCN(C)C [S77a] . Output pEC50: 5.55

Entry CCCCc1nc2c(N)nc3cc(C(=O)OC)ccc3c2n1CCCCCN [S14a] , pEC50 reported as 5.60

###

biological target: hTLR8 (Homo sapiens, UniProt Q9NR97); experiment: HEK Blue hTLR8 cell assay of free TLR7/8 agonists; conditions: HEK Blue hTLR8 cells, free agonist
Sequence (Q9NR97 27-1041): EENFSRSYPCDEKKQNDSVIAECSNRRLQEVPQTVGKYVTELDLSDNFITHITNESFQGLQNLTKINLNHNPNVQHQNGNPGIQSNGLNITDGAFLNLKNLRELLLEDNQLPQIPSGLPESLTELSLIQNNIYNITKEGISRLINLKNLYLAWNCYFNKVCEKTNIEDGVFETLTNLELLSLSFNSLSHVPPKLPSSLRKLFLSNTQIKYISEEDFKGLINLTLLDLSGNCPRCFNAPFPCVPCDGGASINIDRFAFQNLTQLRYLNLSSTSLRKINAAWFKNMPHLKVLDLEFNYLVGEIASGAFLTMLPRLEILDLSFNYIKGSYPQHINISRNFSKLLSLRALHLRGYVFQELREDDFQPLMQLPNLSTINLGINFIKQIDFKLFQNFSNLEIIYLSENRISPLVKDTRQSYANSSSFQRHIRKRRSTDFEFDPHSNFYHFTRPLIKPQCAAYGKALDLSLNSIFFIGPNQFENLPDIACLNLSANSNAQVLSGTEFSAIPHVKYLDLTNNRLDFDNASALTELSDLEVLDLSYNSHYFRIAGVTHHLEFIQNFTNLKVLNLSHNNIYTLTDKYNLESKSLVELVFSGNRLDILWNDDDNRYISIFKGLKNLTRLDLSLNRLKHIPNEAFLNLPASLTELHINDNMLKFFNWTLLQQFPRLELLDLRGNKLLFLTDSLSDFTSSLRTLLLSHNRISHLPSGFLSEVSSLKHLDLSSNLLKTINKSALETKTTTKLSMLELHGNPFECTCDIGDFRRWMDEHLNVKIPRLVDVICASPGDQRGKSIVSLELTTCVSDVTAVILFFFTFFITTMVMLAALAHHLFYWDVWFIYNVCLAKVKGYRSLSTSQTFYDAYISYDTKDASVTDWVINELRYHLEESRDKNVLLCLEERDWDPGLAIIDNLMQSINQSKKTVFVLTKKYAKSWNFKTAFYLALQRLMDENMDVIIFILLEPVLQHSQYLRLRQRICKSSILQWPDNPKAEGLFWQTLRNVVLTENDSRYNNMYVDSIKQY
Reported property: EC50 (µM)
Write the number in µM without appending the unit.

CCCCc1nc2c(N)nc3cc(C(=O)OC)ccc3c2n1CCCCCN [S14a] ... 8.84

Shifting focus to the compound that follows.
// sample CCCCc1nc2c(N)nc3cc(C(=O)OC)ccc3c2n1Cc1ccc(CN(C)C)cc1 [S18a] , its EC50 was 10.3
